These data points were gathered from patent US12319739.

Target: T1, endogenous cell surface human MSLN (human, UniProt Q13421 296-598)
T1 construct: whole, on cells; The cell line is named under assay; also called cell-surface MSLN on NCI-H226, OVCAR-3 and AsPC-1 cells
T1 sequence (Q13421 other isoform, or with tags, fused parts or gaps limits assumed): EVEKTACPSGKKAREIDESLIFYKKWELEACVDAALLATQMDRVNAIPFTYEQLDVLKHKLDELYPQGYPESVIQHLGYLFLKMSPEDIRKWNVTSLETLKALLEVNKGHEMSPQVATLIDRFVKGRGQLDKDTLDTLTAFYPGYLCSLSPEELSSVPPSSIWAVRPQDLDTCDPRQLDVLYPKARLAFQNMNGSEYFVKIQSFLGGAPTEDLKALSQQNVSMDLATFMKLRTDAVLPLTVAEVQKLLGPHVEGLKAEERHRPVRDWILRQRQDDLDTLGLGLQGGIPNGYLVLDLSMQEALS
Assay: flow cytometry, NCI-H226 cells
Measured Emax (MFI) of individual entries
Field: numeric (MFI). Do not append units.

Binder: FS22-172-003-AA/FS28-256-024 (bispecific antibody, human IgG1, kappa, L234A L235A, V domains shown, IgG1 mAb^2 with LALA) VH: EVQLLESGGGLVQPGGSLRLSCAASGFTFTHTYMSWVRQAPGKGLEWVSNISPTYSTTNYADSVKGRFTISRDNNKNTLYLQMNSLRAEDTAVYYCARYNAYHAALDYWGQGTLVTVSS VL: EIVLTQSPGTLSLSPGERATLSCRASQSVSSSYLAWYQQKPGQAPRLLIYGASSRATGIPDRFSGSGSGTDFTLTISRLEPEDFAVYYCQQALGYPHTFGQGTKVEIKR
Reported Result: 647000

Here is another binder to look at.
Form field Emax (MFI), entry FS22-172-003-AA/FS28-256-021 (bispecific antibody, human IgG1, kappa, L234A L235A, V domains shown, IgG1 mAb^2 with LALA) VH: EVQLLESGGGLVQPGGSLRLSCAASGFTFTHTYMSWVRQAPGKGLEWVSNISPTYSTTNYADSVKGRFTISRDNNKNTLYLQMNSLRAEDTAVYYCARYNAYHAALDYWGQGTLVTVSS VL: EIVLTQSPGTLSLSPGERATLSCRASQSVSSSYLAWYQQKPGQAPRLLIYGASSRATGIPDRFSGSGSGTDFTLTISRLEPEDFAVYYCQQHNQYPNTFGQGTKVEIKR : 689000
